src = PubChem BioAssay AID179

Field: EC50. Provide a value for each of the compounds that follow.
System: CEM cells HIV-1 protection, formazan growth assay
Assay: NCI AIDS Antiviral Assay

In the examples that follow, each entry is paired with its recorded EC50.
>>> recordedvalue("CCOC(=O)C(C)(C)Oc1ccc(/C=C/C(=O)c2ccc(Cl)cc2)cc1")
"> 10 µM"
>>> recordedvalue("CC(C)C1/C(=N/O)CC(c2ccccc2)N(N=O)C1c1ccccc1 (stereo not given)")
"> 200 µM"
>>> recordedvalue("COC(=O)CCC1=C(C)c2cc3[n-]c(cc4nc(cc5[n-]c(cc1n2)c(CCC(=O)OC)c5C)C(C(C)=O)=C4C)c(C(C)=O)c3C.[Ni+2]")
"> 100 µM"
>>> recordedvalue("Cc1cc(C)c2c(c1)CC1(Cc3c(C)cc(C)cc3C1=O)C2=O (stereo not given)")
"> 100 µM"

Please examine the following record next.
Please fill in: EC50 reported for "COC(=O)n1c(C)c(C=O)c2ccc(OC)cc21" = > 200 µM

---

Field: IC50. Provide a value for each of the compounds that follow.
Test system: CEM cells HIV-1 protection, formazan growth assay
Test: NCI AIDS Antiviral Assay
Settings: measured here: growth of uninfected CEM cells
Protocol: The ability of compounds to protect human CEM cells from HIV-1 infection is measured as a screen for new compounds capable of inhibiting the HIV virus. Five concentrations of drug were tested on uninfected and infected cells and cell growth was measured using a soluble formazan assay. […] Compounds that provided at least 50% protection were retested. Compounds that provided at least 50% protection on retest were listed as moderately active. […]

>>> recordedvalue("CCN(CC)c1cc2oc(=O)cc(C)c2cc1NC(=O)c1cc(N)cc(N)c1")
"19.5 µM"
>>> recordedvalue("COc1ccc2c(c1)C1C(CO2)C(c2ccccc2)=NN1c1ccccc1 (centres undefined)")
"> 20.4 µM"
>>> recordedvalue("CC(=O)Oc1cc2c(cc1OC(C)=O)[C@H]1CC[C@]3(C)[C@@H](OC(C)=O)CC[C@H]3[C@@H]1CC2")
"10 µM"
>>> recordedvalue("Cc1cc2c(C(C)C)c(O)c(O)c(C=NC(C)c3ccccc3)c2c(O)c1-c1c(C)cc2c(C(C)C)c(O)c(O)c(C=NC(C)c3ccccc3)c2c1O (centres undefined)")
"> 7.24 µM"
>>> recordedvalue("CC(C)CCC[C@@H](C)C1CCC2[C@@H]3CC(OS(=O)(=O)O)C4C[C@@H](O)CC[C@]4(C)C3CC[C@@]21C (some centres undefined)")
"> 49 µM"
>>> recordedvalue("CC(C)CCCC(C)C1CCC2[C@@H]3CCC4C[C@@H](CCCO)CC[C@]4(C)C3CC[C@]12C (some centres undefined)")
"> 4.37 µM"
>>> recordedvalue("CCc1cccc(C(C)CC)c1NC(=O)C(=O)C(CC(=O)Nc1ccc(Cl)c(Cl)c1)C(=O)OC (centres undefined)")
"> 186 µM"
>>> recordedvalue("CSCCC(N)C(=O)NCCS(=O)(=O)O (centres undefined)")
"> 200 µM"

Please examine the following record next.
Please fill in: IC50 reported for COCCCC(NC(=O)C(CC(C)C)NC(=O)OCc1ccc(OC)cc1)C(=O)OC (centres undefined) = 33.1 µM

---

System: CEM cells HIV-1 protection, formazan growth assay
Assay: NCI AIDS Antiviral Assay
Conditions: measured here: growth of uninfected CEM cells
pIC50: −log10 of the molar value.
Note to self: values exactly at 4 are met. So pIC50 at or above 4 is met, below is not met.

>>> discretelabel("C=C1CC2CC(=O)C(O)C(C1)C2 (configuration not stated)")
"not met"
>>> discretelabel("CC1(C)CNC[C@@](C)(O)C(=O)NC(C)(C)CNC[C@@](C)(O)C(=O)N1")
"not met"
>>> discretelabel("Cc1ccc(/C=C2\\N=C(N3CCCCC3)NC2=O)cc1")
"not met"
>>> discretelabel("CC1CCCc2c(CC3CC(=O)NC(=O)C3)nc(N)nc21 (configuration not stated)")
"not met"
>>> discretelabel("COc1cccc2c1C1(O)C2CCCCCCCCCC12OCCCO2 (configuration not stated)")
"met"
>>> discretelabel("CC1(C(N)=O)OC12CCCCC2 (configuration not stated)")
"not met"

Prompt line: Determine whether measured pIC50 meets or exceeds 4 for "Clc1ccc(-n2cnn3c(-c4ccccc4)ncc23)cc1"
Response line: not met

Prompt line: Determine whether measured pIC50 meets or exceeds 4 for CC(C)=CCC1(O)C(=O)c2ccccc2C1(O)C(=O)O (configuration not stated)
Response line: not met

Prompt line: Determine whether measured pIC50 meets or exceeds 4 for "NC(=O)C(=CNC(=S)Nc1ccc(Cl)c(Cl)c1)C(N)=O"
Response line: met

---

System: CEM cells HIV-1 protection, formazan growth assay
Experiment: NCI AIDS Antiviral Assay;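 active = compounds giving half or more protection of infected cells from virus-caused growth loss, again on retest; inactive = the rest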
Answer with one of the outcomes given here: Yes (active), No (inactive)

Prompt line: Any idea what this test logged for "N=C(N)SCCCON" ?
Response line: No

Prompt line: Any idea what this test logged for "c1csc(-c2cc(-c3ccsc3)c(-c3ccsc3)s2)c1" ?
Response line: No

Prompt line: Any idea what this test logged for Cc1nc2ccc(NC3OC(CO)C(O)C(O)C3O)cc2c(=O)n1-c1ccccc1 (stereo unspecified) ?
Response line: No

---

Tested on: CEM cells HIV-1 protection, formazan growth assay
Assay: NCI AIDS Antiviral Assay
readoutLabel: EC50

Batch request: EC50 per item, same order as input.
1. O=c1cc(O)c2ccc(O)cc2o1
2. C=CC[C@]12CC(=O)OC(C=CC13OCCO3)C2
3. COc1ccc(OC)c(NC(=S)N/N=C/c2cccc3ccccc23)c1
4. S=C(SSSSC(=S)N(C1CCCCC1)C1CCCCC1)N(C1CCCCC1)C1CCCCC1
5. O=C(/C=C(/SS/C(=C/C(=O)c1ccccc1)c1ccccc1)c1ccccc1)c1ccccc1

Response line:
1. > 40.7 µM
2. > 200 µM
3. > 200 µM
4. > 200 µM
5. > 200 µM

Batch request: EC50 per item, same order as input.
1. COc1ccc(C2=Nn3c(nc4sc5c(c4c3=O)CCCC5)SC2)cc1
2. CN(C)[C@@H]1C(=O)C(C(=O)NCNCCCC(=O)O)=C(O)[C@@]2(O)C(=O)C3=C(O)c4c(O)cccc4[C@@](C)(O)[C@H]3C[C@@H]12
3. CSc1c(C(=O)Nc2ccc(C)cc2)c(N)[nH]c(=O)c1C#N

Response line:
1: > 200 µM; 2: > 1.78 µM; 3: > 95.5 µM

Batch request: EC50 per item, same order as input.
1. CC(=O)Nc1c(C#N)c2n(c1C(=O)Nc1ccccc1)CCC2
2. CS(=O)(=O)OC[C@@H]1OCO[C@H]1COS(C)(=O)=O

Response line:
1: > 200 µM; 2: > 200 µM

---

Tested on: CEM cells HIV-1 protection, formazan growth assay
Experiment: NCI AIDS Antiviral Assay
Settings: measured here: growth of uninfected CEM cells
Field: pIC50. Provide a value for each of the molecules that follow.
Answers are plain numbers, as −log10 of the molar value.

In the examples that follow, each entry is paired with its recorded pIC50.
>>> recordedvalue("Cn1cnc([N+](=O)[O-])c1Sc1n[nH]c(-c2ccc(Cl)cc2)n1")
5.17
>>> recordedvalue("OC(CCN1CC2CCC(CC2)C1)(Cc1ccccc1)c1cccs1 (stereo not given)")
4.32
>>> recordedvalue("Cc1c(CCCl)c(Cl)n2c(nc3ccccc32)c1C#N")
6.27
>>> recordedvalue("CC(=O)N1C=Cc2c(c(C)c3c([nH]c4ccccc43)c2C)C1")
6.80
>>> recordedvalue("Cc1ccc2c(c1)C(O)(c1ccccc1)C(c1ccccc1)C(c1ccccc1)O2 (stereo not given)")
5.16
>>> recordedvalue("COC1/C=C/OC2(C)Oc3c(C)c(O)c4c(O)c(c(/C=N/NC5C6CC7CC(C6)CC5C7)c(O)c4c3C2=O)NC(=O)/C(C)=C/C=C/C(C)C(O)C(C)C(O)C(C)C(OC(C)=O)C1C (stereo not given)")
5.04

Batch request: pIC50 per item, same order as input.
1. COc1cc(/C=C2\S/C(=N/Nc3nc(-c4ccc(Br)cc4)cs3)NC2=O)cc(OC)c1OC
2. Cc1no[n+]([O-])c1/C=N/NS(=O)(=O)c1ccccc1
3. c1ccc(P(CC[As](c2ccccc2)c2ccccc2)CC[As](c2ccccc2)c2ccccc2)cc1
4. CC1Oc2cc3c(-c4c(O)cc(O)c5c(O)c6c(cc45)OC(C)C(C)C6=O)c(O)cc(O)c3c(O)c2C(=O)C1C (stereo not given)
5. S=C1NCCO1

Response line:
[4.77, 3.39, 5.67, 6.42, 3.98]

Batch request: pIC50 per item, same order as input.
1. C1CCC2C(C1)CCCC2NC1=NCCO1 (stereo not given)
2. Cc1ccc(C(=O)C2CC3(CCC2(O)c2ccc(C)cc2)CC(=O)Nc2ccccc2C3=O)cc1 (stereo not given)

Response line:
3.94
4.05
